- TARGET_SYSTEM: 5-hydroxytryptamine receptor 2A (Homo sapiens, UniProt P28223)
- Sequence (P28223 whole entry): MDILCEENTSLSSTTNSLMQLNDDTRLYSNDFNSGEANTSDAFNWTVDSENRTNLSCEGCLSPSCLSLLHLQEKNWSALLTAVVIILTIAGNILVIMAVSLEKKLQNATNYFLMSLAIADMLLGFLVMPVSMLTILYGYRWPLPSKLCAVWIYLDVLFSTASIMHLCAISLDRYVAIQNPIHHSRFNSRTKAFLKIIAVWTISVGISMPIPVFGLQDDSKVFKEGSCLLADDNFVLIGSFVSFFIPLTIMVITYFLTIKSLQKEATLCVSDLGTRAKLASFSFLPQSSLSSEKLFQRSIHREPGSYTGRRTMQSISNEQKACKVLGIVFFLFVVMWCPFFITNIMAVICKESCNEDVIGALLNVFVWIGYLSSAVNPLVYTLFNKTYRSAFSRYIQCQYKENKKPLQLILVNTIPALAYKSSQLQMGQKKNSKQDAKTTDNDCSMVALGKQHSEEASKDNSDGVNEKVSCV
- MEASUREMENT_NOTES: Agonist activity at human 5-HT2A receptor expressed in HEK293 cells assessed as calcium flux at 10 uM by FLIPR assay
- Type: functional, cell-based
Activity calls are given as the source filed them. The rule behind the calls is not given here.
VALUE_KIND: Activity

Reference set, count: 5
> print(dat)
                        smiles.notation  reported
1     CSCCOc1ccc(Cl)cc1[C@H]1C[C@@H]1CN  inactive
2   C=C(F)COc1ccc(F)cc1[C@@H]1C[C@H]1CN  inactive
3  C=C(F)COc1ccc(Cl)cc1[C@@H]1C[C@H]1CN  inactive
4      CCCOc1ccc(Cl)cc1[C@@H]1C[C@H]1CN  inactive
5       CCOc1ccc(Cl)cc1[C@@H]1C[C@H]1CN  inactive

Request: Requested read-out: Activity. Entry: NC[C@@H]1C[C@H]1c1cc(Cl)ccc1OCCF
Result: inactive

Request: Further, for C=CCOc1ccc(Cl)cc1[C@H]1C[C@@H]1CN.O=C(O)C(F)(F)F ?
Result: inactive

Request: Next up: CCCOc1ccc(F)cc1[C@@H]1C[C@H]1CN
Result: inactive

Request: Now consider NC[C@H]1C[C@@H]1c1cc(Cl)ccc1OCC1CC1 .
Result: inactive

Request: Also C#CCOc1ccc(Cl)cc1[C@@H]1C[C@H]1CN ?
Result: inactive

Request: Another: C=CCOc1ccc(Cl)cc1[C@@H]1C[C@H]1CN
Result: inactive

Request: Quick one: CSCCOc1ccc(Cl)cc1[C@@H]1C[C@H]1CN
Result: inactive

====

Quick reference for Emax among some compounds
- TARGET_SYSTEM: 5-hydroxytryptamine receptor 2C (Homo sapiens)
- MEASUREMENT_NOTES: Agonist activity at human 5-HT2C receptor expressed in HEK293 cells assessed as calcium flux by FLIPR assay relative to 5-HT
- Type: functional, cell-based
Quick note: number first, unit second.

> print(dat)
                           smiles.notation  value.kind  reported
1         CCCOc1ccc(Cl)cc1[C@@H]1C[C@H]1CN        Emax       31%
2      Cl.NC[C@H]1C[C@@H]1c1cc(Cl)ccc1OCCF        Emax       86%
3          CCOc1ccc(Cl)cc1[C@H]1C[C@@H]1CN        Emax       91%
4        CSCCOc1ccc(Cl)cc1[C@H]1C[C@@H]1CN        Emax       24%
5  C=C(F)COc1ccc(Cl)cc1[C@H]1C[C@@H]1CN.Cl        Emax       81%
6        NC[C@H]1C[C@@H]1c1cc(Cl)ccc1OCCCF        Emax       60%
7        COCCOc1ccc(Cl)cc1[C@@H]1C[C@H]1CN        Emax       45%
8        C=CCOc1ccc(Cl)cc1[C@@H]1C[C@H]1CN        Emax       42%

Now look at this entry.
Request: Quick check: Emax on 5-hydroxytryptamine receptor 2C (Homo sapiens), item NC[C@@H]1C[C@H]1c1cc(Cl)ccc1OCCCF ?
Result: 24%

====

- TARGET_SYSTEM: 5-hydroxytryptamine receptor 2B (Homo sapiens, UniProt P41595)
- Sequence (P41595 whole entry): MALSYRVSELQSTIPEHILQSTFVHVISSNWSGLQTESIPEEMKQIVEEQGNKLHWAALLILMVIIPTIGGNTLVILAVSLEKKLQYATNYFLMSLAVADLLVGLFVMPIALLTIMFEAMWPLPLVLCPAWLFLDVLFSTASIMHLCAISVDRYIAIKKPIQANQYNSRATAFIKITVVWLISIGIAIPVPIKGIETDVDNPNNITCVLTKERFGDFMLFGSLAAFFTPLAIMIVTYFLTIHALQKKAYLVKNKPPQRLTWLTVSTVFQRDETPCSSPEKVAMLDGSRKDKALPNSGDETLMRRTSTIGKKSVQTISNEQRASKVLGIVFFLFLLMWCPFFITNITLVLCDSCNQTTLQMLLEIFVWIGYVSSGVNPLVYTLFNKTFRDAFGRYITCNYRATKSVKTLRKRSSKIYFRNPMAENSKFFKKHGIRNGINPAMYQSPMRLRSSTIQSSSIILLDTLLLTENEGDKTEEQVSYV
- MEASUREMENT_NOTES: Agonist activity at human 5-HT2B receptor expressed in HEK293 cells assessed as calcium flux by FLIPR assay
- Format: functional, cell-based
Reported values of pEC50 for individual entries
Quick note: pEC50 values are minus log10 of concentrations in mol/L.

Please review the following examples before continuing.
> print(dat)
                        smiles.notation  reported
1   NC[C@@H]1C[C@H]1c1cc(Cl)ccc1OCC(F)F      5.83
2  C=C(F)COc1ccc(Cl)cc1[C@@H]1C[C@H]1CN      5.16
3      CCCOc1ccc(Cl)cc1[C@H]1C[C@@H]1CN      5.46
4      NC[C@@H]1C[C@H]1c1cc(Cl)ccc1OCCF      5.34

Below: the item to evaluate.
Request: pEC50 for CCCOc1ccc(F)cc1[C@H]1C[C@@H]1CN ?
Result: 5.70

====

- TARGET_SYSTEM: hERG (KCNH2) (Homo sapiens, UniProt Q12809)
- Sequence (Q12809 whole entry): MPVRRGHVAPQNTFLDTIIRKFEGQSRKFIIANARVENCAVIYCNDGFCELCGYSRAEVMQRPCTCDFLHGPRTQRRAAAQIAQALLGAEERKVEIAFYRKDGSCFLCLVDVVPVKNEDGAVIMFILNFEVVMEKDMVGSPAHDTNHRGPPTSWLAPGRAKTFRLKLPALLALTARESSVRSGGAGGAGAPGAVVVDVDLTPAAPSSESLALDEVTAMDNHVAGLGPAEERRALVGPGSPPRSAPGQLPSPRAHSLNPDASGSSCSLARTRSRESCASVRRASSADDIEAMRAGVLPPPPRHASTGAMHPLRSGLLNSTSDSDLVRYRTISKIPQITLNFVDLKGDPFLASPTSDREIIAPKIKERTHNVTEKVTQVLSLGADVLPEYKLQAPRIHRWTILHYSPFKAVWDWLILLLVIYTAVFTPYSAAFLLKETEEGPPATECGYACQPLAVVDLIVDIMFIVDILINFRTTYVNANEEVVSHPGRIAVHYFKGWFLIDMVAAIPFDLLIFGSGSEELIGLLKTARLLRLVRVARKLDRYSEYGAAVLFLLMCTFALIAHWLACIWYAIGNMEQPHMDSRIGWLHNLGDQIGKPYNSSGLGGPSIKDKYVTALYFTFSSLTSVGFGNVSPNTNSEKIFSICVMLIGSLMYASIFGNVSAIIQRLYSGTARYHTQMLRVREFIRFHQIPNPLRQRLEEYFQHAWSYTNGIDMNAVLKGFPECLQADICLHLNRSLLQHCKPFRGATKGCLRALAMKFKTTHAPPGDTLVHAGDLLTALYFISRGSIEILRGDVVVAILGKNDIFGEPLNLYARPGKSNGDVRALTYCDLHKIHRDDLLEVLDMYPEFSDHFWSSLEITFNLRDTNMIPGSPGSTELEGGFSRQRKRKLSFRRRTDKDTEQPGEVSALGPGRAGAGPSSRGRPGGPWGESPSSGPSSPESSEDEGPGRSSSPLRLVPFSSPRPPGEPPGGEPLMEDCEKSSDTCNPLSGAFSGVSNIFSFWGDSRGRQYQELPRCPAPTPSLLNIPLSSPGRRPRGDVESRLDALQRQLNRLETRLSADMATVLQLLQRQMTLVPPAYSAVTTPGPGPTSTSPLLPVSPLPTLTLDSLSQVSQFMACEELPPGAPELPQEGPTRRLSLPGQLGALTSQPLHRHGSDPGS
- MEASUREMENT_NOTES: Inhibition of human ERG channel expressed in CHO cells at 30 uM by patch clamp method
- Format: cell-based
- TEST_CONDITIONS: CHO cells expressing human ERG channel
Examples of compounds with documented inhibition at 30 µM follow.
State just the number; it will be interpreted in %.

> print(dat)
                      smiles.notation                             target.system           value.kind  reported
1  Cl.NC[C@H]1C[C@@H]1c1cc(F)ccc1OCCF  hERG (KCNH2) (Homo sapiens, UniProt Q12809)  inhibition at 30 µM        35

# input for lookup
Request: Look at this compound and give its reported inhibition at 30 µM. C=CCOc1ccc(F)cc1[C@H]1C[C@@H]1CN.Cl
Result: 45

====

- TARGET_SYSTEM: hERG (KCNH2) (Homo sapiens)
- MEASUREMENT_NOTES: Inhibition of human ERG channel expressed in CHO cells at 10 uM by patch clamp method
- Type: cell-based
- TEST_CONDITIONS: CHO cells expressing human ERG channel
VALUE_KIND: inhibition at 10 µM (%)
// units = %; emit number, no label

> print(dat)
                      smiles.notation  reported
1  Cl.NC[C@H]1C[C@@H]1c1cc(F)ccc1OCCF        25

API: the following record is the query input.
Request: Fill in: inhibition at 10 µM of C=CCOc1ccc(F)cc1[C@H]1C[C@@H]1CN.Cl is ___
Result: 29

====

- TARGET_SYSTEM: 5-hydroxytryptamine receptor 1A (Homo sapiens, UniProt P08908)
- Sequence (P08908 whole entry): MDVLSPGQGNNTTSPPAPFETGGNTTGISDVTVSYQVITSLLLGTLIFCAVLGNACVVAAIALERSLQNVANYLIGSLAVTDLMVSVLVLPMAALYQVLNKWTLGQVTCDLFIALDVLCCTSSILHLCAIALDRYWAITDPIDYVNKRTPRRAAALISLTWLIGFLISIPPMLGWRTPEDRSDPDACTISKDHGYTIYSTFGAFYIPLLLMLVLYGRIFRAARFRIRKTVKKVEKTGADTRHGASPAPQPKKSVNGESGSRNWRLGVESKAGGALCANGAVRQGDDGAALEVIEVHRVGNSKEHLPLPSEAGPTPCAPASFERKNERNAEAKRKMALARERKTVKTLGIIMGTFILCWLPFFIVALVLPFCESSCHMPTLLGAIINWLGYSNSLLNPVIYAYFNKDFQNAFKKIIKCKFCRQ
VALUE_KIND: Ki

Request: API: value(readout= Ki, system= 5-hydroxytryptamine receptor 1A (Homo sapiens, UniProt P08908), query= C=CCOc1ccc(F)cc1[C@H]1C[C@@H]1CN.Cl )
Result: < 1 µM

====

- TARGET_SYSTEM: D(3) dopamine receptor (Homo sapiens)
- Sequence (P35462 whole entry): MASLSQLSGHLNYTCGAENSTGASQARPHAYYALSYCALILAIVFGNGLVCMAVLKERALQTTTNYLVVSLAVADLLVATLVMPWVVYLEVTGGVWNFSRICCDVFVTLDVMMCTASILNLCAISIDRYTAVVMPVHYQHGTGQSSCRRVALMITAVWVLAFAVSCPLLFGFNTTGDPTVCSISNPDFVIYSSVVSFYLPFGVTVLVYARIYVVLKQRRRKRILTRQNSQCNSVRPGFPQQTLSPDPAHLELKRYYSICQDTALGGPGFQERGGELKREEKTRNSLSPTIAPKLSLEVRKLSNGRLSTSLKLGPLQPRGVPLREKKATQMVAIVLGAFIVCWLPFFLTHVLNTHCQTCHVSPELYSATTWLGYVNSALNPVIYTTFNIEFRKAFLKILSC
pKi: −log10 of the molar value.
VALUE_KIND: pKi

Request: Item under review: C=CCOc1ccc(F)cc1[C@H]1C[C@@H]1CN.Cl . Reported pKi?
Result: > 6.00

====

- MEASUREMENT_NOTES: Drug uptake in CD1 mouse brain at 10 mg/kg, ip after 0.5 hrs
- Format: ADME, organism-based
- Parameters: dose 10 mg/kg, route intraperitoneal
- TEST_CONDITIONS: read-out: Drug uptake
Measured concentration at 0.5 h, listed per entry for reference.
Write down the value, and be sure its unit follows.

> print(dat)
                       smiles.notation    reported
1  Cl.NC[C@H]1C[C@@H]1c1cc(Cl)ccc1OCCF  12800 ng/g

Shifting focus to the molecule that follows.
Request: Recorded concentration at 0.5 h of C=C(F)COc1ccc(Cl)cc1[C@H]1C[C@@H]1CN.Cl , please.
Result: 17500 ng/g

====

- TARGET_SYSTEM: CYP3A4 (Homo sapiens, UniProt P08684)
- Sequence (P08684 whole entry): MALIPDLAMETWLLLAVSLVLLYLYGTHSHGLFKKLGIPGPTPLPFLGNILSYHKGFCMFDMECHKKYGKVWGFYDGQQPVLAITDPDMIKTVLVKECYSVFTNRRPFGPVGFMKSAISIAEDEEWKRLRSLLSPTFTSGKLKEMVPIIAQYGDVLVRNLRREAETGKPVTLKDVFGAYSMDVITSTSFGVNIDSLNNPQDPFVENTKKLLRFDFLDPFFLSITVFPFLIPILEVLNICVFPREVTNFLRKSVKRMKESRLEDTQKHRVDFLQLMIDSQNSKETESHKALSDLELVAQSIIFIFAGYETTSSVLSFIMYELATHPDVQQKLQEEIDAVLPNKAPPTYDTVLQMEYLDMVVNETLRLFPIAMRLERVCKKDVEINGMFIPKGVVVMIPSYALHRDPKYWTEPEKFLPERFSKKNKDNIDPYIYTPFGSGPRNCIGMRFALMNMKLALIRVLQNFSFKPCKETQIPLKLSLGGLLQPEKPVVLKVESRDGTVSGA
- MEASUREMENT_NOTES: Inhibition of human CYP3A4 using midazolam as substrate at 10 uM
- Type: ADME
- TEST_CONDITIONS: probe midazolam
VALUE_KIND: inhibition at 10 µM

> print(dat)
                       smiles.notation           value.kind  reported
1  C=CCOc1ccc(F)cc1[C@H]1C[C@@H]1CN.Cl  inhibition at 10 µM       15%

Alright, here's another compound for you.
Request: What measured inhibition at 10 µM goes with Cl.NC[C@H]1C[C@@H]1c1cc(F)ccc1OCCF ?
Result: 10%

====

- MEASUREMENT_NOTES: Drug uptake in CD1 mouse brain at 10 mg/kg, ip after 2 hrs
- Format: ADME, organism-based
- Design: dose 10 mg/kg, route intraperitoneal
- TEST_CONDITIONS: read-out: Drug uptake
The entries below are paired with their reported concentration at 2 h.
Numeric answer only, unit ng/g assumed.

> print(dat)
                           smiles.notation  unit.tag  reported
1  C=C(F)COc1ccc(Cl)cc1[C@H]1C[C@@H]1CN.Cl      ng/g     14700

Request: // returns reported concentration at 2 h for input Cl.NC[C@H]1C[C@@H]1c1cc(Cl)ccc1OCCF
Result: 13400

====

- TARGET_SYSTEM: Alpha-2B adrenergic receptor (Homo sapiens, UniProt P18089)
- Sequence (P18089 whole entry): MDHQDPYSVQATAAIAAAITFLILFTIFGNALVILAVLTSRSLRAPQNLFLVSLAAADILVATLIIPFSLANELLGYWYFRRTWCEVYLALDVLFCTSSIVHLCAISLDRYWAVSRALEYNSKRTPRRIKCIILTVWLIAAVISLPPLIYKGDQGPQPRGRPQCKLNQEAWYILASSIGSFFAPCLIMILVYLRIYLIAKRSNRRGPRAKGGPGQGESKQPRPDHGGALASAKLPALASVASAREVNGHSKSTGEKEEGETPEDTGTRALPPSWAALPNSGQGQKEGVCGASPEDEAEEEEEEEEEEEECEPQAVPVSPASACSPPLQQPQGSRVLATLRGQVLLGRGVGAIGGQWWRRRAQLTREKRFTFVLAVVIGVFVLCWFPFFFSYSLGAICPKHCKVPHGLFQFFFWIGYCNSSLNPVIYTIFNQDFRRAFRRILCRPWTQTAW
VALUE_KIND: Ki

Request: Any idea what Ki came out for C=CCOc1ccc(F)cc1[C@H]1C[C@@H]1CN.Cl on Alpha-2B adrenergic receptor (Homo sapiens, UniProt P18089)?
Result: < 1000 nM

src = ChEMBL document CHEMBL3414471
